Assignment: determine reported LD50 for the given molecules.
Assay: Toxicity, 50% lethal dose, intraperitoneal administration to CD1 male rats
Settings: rat, in vivo, ip; intraperitoneally to rats, fasted 18 hours; read-out: 50% lethal dose (LD 50)

Answered examples (6):
OCCN(C=Nc1noc(Cc2c(Cl)cccc2Cl)n1)CCO; ≥ 500 mg/kg
CN(C)CCCNc1noc(Cc2c(Cl)cccc2Cl)n1; < 250 mg/kg
CN1CCN(C=Nc2noc(Cc3c(Cl)cccc3Cl)n2)CC1; < 500 mg/kg
Nc1noc(Cc2cc(Cl)ccc2Cl)n1; ≥ 500 mg/kg
CN(C)C=Nc1noc(Cc2c(F)cccc2Cl)n1; ≤ 500 mg/kg
CN(C)C=Nc1noc(Cc2c(Cl)cccc2Cl)n1; > 500 mg/kg

Could you now consider this next molecule?
Ask | State its LD50: Nc1noc(Cc2c(Cl)cccc2Cl)n1
Reply | 250 mg/kg
